Experiment: Solubility of compound in phosphate buffered saline buffer
Format: physicochemical
quantity-name: solubility

Guide cases for solubility, answers given:
CN(Cc1ccccc1)C(=O)C1CCCN(Cc2cccc(Cl)c2)C1 (stereo unspecified)    > 100 µM
CCCn1ncc(CN2CCCC(C(=O)c3cccc(OC(C)C)c3)C2)c1C (stereo unspecified)    > 500 µM
COc1ccc(C(=O)C2CCCN(CCc3ccccc3)C2)cc1OC (stereo unspecified)    > 200 µM
COc1ccc(C(=O)C2CCCN(CC3CCCCC3)C2)cc1OC (stereo unspecified)    > 200 µM
COc1ccc(CN2CCCC(C(=O)N3CCc4ccccc4C3)C2)cc1OC (stereo unspecified)    > 100 µM

Now consider the entry below.
The reported solubility of the compound CN(Cc1ccccc1)C(=O)C1CCCN(Cc2ccc(C(F)(F)F)cc2)C1 (stereo unspecified) was > 100 µM
